The measurements presented in this section are drawn from the supplement of paper PMC8728848.

# target under test: Glc(b1-6)Glc
# experiment description: glycan array binding signal (z-score within array); higher = stronger binding
# reported conditions: glycan notation: IUPAC condensed, linker removed
This is one part of a sample in which the strongest signals are shown more often than they occur.
recorded metric: glycan array binding signal (z-score)
Reply briefly: the number, and no unit.

Check out these entries, answers already filled in.
binder	observed measurement
Onconase (Rana pipiens), P22069 (protein) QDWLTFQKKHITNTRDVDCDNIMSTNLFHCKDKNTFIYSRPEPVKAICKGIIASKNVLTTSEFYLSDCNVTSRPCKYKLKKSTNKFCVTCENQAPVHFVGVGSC	0.027
PhypaEULS3 (Physcomitrella patens) (protein) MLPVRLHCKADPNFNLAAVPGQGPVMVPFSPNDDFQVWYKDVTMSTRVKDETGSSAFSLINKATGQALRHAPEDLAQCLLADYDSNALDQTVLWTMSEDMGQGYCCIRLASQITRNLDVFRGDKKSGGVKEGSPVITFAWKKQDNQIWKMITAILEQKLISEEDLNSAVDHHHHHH	-1.38
Gal 8 (Homo sapiens), O00214_1 (protein) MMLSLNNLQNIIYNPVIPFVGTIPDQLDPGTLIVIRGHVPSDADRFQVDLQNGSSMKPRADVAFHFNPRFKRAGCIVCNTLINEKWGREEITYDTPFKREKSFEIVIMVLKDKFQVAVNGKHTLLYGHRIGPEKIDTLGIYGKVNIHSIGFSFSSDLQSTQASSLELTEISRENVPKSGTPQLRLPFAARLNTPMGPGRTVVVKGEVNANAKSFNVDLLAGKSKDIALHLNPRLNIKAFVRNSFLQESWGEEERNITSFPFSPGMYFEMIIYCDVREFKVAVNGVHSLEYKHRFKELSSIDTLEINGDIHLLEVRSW	-0.234
CPA (Cicer arietinum) (protein) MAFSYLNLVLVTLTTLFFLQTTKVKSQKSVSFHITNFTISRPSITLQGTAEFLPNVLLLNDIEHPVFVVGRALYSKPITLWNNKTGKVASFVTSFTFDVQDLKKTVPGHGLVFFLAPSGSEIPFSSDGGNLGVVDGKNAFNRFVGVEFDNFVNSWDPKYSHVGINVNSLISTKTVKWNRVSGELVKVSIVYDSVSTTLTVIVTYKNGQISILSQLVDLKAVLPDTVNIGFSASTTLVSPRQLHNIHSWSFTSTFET	-0.614
Clec12b (Mus musculus), Q149M0 (protein) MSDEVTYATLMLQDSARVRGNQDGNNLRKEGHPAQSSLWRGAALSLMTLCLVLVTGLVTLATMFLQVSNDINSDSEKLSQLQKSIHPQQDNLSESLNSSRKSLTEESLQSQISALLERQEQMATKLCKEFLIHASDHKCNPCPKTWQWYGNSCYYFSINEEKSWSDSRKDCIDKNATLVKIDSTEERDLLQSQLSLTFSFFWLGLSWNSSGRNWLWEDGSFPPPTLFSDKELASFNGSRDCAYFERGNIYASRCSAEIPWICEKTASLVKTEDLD	-0.441
MXA PilAct-eGFP (Myxococcus xanthus), Q59589 (protein) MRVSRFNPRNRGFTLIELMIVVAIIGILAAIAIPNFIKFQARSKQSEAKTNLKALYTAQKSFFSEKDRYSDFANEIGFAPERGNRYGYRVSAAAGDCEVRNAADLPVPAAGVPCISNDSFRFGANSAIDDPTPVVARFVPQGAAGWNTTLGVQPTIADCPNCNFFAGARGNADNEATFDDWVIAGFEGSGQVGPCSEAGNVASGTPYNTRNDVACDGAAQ	1.37

Consider the record given below.
Q) Using the record for DCL-1 (Homo sapiens), Q8IX05 (protein) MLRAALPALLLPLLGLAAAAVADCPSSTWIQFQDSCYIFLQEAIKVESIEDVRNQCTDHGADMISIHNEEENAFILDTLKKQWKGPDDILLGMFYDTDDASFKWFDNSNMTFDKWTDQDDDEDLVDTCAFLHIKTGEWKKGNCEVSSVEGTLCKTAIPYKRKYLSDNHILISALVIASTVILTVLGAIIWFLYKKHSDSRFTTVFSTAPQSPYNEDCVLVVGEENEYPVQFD , report its glycan array binding signal (z-score).
A) -0.407
